# assay-target: UniProt:Q9UBT2
# Sequence (Q9UBT2 1-640): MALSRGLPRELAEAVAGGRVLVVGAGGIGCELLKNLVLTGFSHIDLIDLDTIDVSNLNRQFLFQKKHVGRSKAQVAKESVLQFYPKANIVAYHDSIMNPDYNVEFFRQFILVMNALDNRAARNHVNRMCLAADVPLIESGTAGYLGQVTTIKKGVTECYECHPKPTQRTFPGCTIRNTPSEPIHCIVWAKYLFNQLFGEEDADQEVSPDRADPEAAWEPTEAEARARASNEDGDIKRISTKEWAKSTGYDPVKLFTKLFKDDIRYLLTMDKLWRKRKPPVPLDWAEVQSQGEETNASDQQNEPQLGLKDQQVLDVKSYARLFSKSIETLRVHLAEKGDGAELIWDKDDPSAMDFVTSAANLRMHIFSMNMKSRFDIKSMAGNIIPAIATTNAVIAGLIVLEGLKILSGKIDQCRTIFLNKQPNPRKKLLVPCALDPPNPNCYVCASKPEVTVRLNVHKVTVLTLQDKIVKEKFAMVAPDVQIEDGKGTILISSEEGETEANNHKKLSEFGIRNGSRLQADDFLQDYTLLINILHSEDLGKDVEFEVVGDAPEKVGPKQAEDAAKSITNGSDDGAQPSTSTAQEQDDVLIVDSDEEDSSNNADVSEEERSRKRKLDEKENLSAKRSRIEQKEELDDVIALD
# Sequence (Q9UBE0 1-346 partner): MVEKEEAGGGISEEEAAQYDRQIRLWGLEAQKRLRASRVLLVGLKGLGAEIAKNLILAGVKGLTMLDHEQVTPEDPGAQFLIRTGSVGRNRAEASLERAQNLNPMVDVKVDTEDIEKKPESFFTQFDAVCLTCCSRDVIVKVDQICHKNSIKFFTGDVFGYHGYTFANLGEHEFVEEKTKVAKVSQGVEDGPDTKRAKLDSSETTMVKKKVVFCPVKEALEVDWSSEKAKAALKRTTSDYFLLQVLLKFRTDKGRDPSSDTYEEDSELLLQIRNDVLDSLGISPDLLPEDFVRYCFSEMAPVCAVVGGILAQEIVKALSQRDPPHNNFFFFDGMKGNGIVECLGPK
# test: SUMO activity (Table I, biological activities)
# Type: biochemical
# Design: key: + (less active); ++ (active); +++ (most active)
property-name: SUMO

Example entries and their recorded answers appear below.
- compound: "COC(=O)C1=C(C(=O)Nc2ccc(CN(C)C)cc2)C2C=CC1(C(Cc1ccccc1)Nc1ccccc1)O2 (stereo not shown)"
  SUMO: "++"
- compound: "O=C(C1=CC2(C3OCCO3)C=CC1O2)c1ccc(F)cc1 (stereo not shown)"
  SUMO: "++"
- compound: "COC(=O)C1=C(C(=O)OC)C2(C(Cc3ccccc3)Nc3ccccc3)CC(O)C1O2 (stereo not shown)"
  SUMO: "++"
- compound: "COC(=O)C1=C(C(=O)NCCN(C)C)C2(C)C=CC1(C(Cc1ccccc1)Nc1ccccc1)O2 (stereo not shown) [Compound 594]"
  SUMO: "++"

Result for COC(=O)C1=C(C(=O)NCCN(C)C)C2C=CC1(C(Cc1ccccc1)Nc1ccccc1)O2 (stereo not shown) , tested on UniProt:Q9UBT2, SUMO: +++
